biological target: human recombinant HDAC6 (Homo sapiens); construct: purchased Calbiochem 382180; assay: HDAC6 enzyme activity inhibition assay (HDAC Fluorimetric Drug Discovery Kit); assay type: biochemical; settings: HDAC6 over HDAC1
Sequence (Q9UBN7 whole entry): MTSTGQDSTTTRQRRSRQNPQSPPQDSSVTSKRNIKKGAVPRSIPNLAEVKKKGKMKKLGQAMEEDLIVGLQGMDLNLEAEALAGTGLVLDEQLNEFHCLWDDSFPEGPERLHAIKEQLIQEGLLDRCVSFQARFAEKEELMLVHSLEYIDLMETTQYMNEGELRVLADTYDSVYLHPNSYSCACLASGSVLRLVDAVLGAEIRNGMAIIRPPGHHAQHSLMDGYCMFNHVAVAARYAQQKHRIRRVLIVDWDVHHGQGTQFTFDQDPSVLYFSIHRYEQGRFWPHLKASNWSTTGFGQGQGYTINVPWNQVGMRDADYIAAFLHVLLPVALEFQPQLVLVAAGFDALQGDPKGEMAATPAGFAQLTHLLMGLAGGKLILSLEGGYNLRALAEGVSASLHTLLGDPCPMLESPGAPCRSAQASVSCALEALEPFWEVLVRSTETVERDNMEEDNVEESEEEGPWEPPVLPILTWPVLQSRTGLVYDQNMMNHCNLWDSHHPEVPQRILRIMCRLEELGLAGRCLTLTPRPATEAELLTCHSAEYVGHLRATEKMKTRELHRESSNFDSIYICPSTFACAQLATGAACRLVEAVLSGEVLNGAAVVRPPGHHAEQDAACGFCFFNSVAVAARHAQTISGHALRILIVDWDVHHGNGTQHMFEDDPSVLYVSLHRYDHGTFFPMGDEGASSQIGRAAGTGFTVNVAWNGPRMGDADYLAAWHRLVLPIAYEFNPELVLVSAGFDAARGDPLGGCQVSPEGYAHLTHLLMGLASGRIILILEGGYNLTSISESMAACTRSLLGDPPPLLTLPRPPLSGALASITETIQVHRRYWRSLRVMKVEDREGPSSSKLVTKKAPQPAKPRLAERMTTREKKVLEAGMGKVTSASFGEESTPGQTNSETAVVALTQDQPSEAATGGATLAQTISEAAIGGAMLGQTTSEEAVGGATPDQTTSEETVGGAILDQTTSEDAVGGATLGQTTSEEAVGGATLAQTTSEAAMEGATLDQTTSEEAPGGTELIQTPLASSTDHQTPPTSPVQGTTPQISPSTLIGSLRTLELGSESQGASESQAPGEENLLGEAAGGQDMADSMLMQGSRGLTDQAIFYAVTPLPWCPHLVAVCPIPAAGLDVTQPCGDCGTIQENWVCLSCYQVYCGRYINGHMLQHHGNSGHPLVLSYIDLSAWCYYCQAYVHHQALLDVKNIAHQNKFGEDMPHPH
observedProperty: HDAC6 selectivity (fold)

Below, 5 compounds whose answers are already recorded.
O=C(N1CCS(=O)(=O)CC1)N(Cc1ccc(-c2nnc(C(F)(F)F)o2)cc1)c1cccc(-c2ccccc2)c1 [Compound 21439] ... 6
Cn1ncc2ccc(-c3ccc(N(Cc4ccc(-c5nnc(C(F)(F)F)o5)cc4)C(=O)N4CCS(=O)(=O)CC4)cc3)cc21 [Compound 21487] ... 6
O=C(N1CCOCC1)N(Cc1ccc(-c2nnc(C(F)(F)F)o2)cc1)c1cccnc1 [Compound 21427] ... 79
CN(C)[C@H]1CCN(C(=O)N(Cc2ccc(-c3nnc(C(F)F)o3)cc2F)c2cccc(Cl)c2F)C1 [Compound 21643] ... 352
CN(C)CCNC(=O)N(Cc1ccc(-c2nnc(C(F)F)o2)cc1)c1ccccc1 [Compound 21577] ... 152

1: CC(C)(C)N1CCN(C(=O)N(Cc2ccc(-c3nnc(C(F)(F)F)o3)cc2)c2ccccc2)CC1 [Compound 21381]
2: CN1CCN(C(=O)N(Cc2ccc(-c3nnc(C(F)F)o3)cc2F)c2cccc3cnn(C)c23)CC1 [Compound 21707]
3: O=C(N1CCS(=O)(=O)CC1)N(Cc1ccc(-c2nnc(C(F)(F)F)o2)cc1F)c1ccc(OC(F)(F)F)cc1 [Compound 21513]
4: CC1(C)Cc2cccc(N(Cc3ccc(-c4nnc(C(F)F)o4)cc3F)C(=O)N3CCS(=O)(=O)CC3)c2O1 [Compound 21798]
Query: Descending sort on HDAC6 selectivity (fold) required. Arrange the labels as the request states and list them.
Reply: 2, 1, 3, 4

a: CCNC(=O)N(Cc1ccc(-c2nnc(C(F)(F)F)o2)cc1)c1ccccc1 [Compound 21353]
b: CN1CCN(C(=O)N(Cc2ccc(-c3nnc(C(F)F)o3)cc2F)c2ccc3cnn(C)c3c2)CC1 [Compound 21654]
Query: Among a and b , which shows a numerically higher HDAC6 selectivity (fold) result? Your answer should be the label attached to the chosen record.
Reply: b
(b: 1518 fold, a: 14 fold)

I: COc1cccc(N(Cc2ccc(-c3nnc(C(F)F)o3)cn2)C(=O)N2CCN(C3COC3)CC2)c1 [Compound 21950]
II: CCN1CCN(C(=O)N(Cc2ccc(-c3nnc(C(F)F)o3)cn2)c2ccc(Cl)cc2)CC1 [Compound 21882]
Query: Lab note: check whether I or II shows the higher recorded HDAC6 selectivity (fold). Mark your answer with the label of the selected entry.
Reply: II
(II: 251 fold, I: 64 fold)

a: CC(C)c1nc2ccc(N(Cc3ccc(-c4nnc(C(F)F)o4)cc3F)C(=O)N3CCS(=O)(=O)CC3)cc2s1 [Compound 21813]
b: CN1CC2(CCN(C(=O)N(Cc3ccc(-c4nnc(C(F)F)o4)cc3F)c3ccccc3)CC2)C1 [Compound 21496]
Query: Which of these two has the smaller recorded HDAC6 selectivity (fold): a or b ? Your choice should be expressed through its label.
Reply: a
(a: 30 fold, b: 500 fold)

P: O=C(NC1CCC1)N(Cc1ccc(-c2nnc(C(F)(F)F)o2)cc1)c1ccccc1 [Compound 21340]
Q: CCN1CCN(CCCOc2ccc(N(Cc3ccc(-c4nnc(C(F)F)o4)cc3F)C(=O)N3CCS(=O)(=O)CC3)cc2)CC1 [Compound 21972]
Query: Kindly identify which of P and Q has the larger recorded HDAC6 selectivity (fold) value. Kindly state the label of the option you pick.
Reply: Q

A: O=C(N1CCOCC1)N(Cc1ccc(-c2nnc(C(F)(F)F)o2)cc1F)C12CC3CC(CC(C3)C1)C2 [Compound 21931]
B: CC(=O)N1CCCN(C(=O)N(Cc2ccc(-c3nnc(C(F)(F)F)o3)cc2)c2ccccc2)CC1 [Compound 21422]
C: O=C(N1CCS(=O)(=O)CC1)N(Cc1ccc(-c2nnc(C(F)F)o2)cn1)c1cccc(F)c1 [Compound 21830]
Query: Sort these compounds on HDAC6 selectivity (fold) so the largest reading comes first. Your answer should be the labels, listed in the requested order.
Reply: C, B, A

P: O=C(N1CC=C(c2ccccc2)CC1)N(Cc1ccc(-c2nnc(C(F)(F)F)o2)cc1)c1ccccc1 [Compound 21359]
Q: O=C(NCCN1CCC[C@@H]1C(F)(F)F)N(Cc1ccc(-c2nnc(C(F)F)o2)cc1F)c1ccccc1 [Compound 21987]
Query: When the recorded HDAC6 selectivity (fold) values are compared, which is smaller: that of P or that of Q ? To answer, give the label that identifies your chosen option.
Reply: P
(P: 4 fold, Q: 47 fold)

P: CN1CCCN(C(=O)N(Cc2ccc(-c3nnc(C(F)F)o3)cc2F)c2ccccc2)CC1 [Compound 21423]
Q: O=C(N1CCS(=O)(=O)CC1)N(Cc1ccc(-c2nnc(C(F)F)o2)cc1F)c1ccc(F)cc1 [Compound 21806]
R: O=C(N1CCS(=O)(=O)CC1)N(Cc1ccc(-c2nnc(C(F)(F)F)o2)cc1)c1ccccn1 [Compound 21409]
Query: Arrange items by their HDAC6 selectivity (fold) values in increasing order. In your reply, arrange the labels in the requested order.
Reply: R, Q, P
(R: 33 fold, Q: 261 fold, P: 377 fold)
